measurement_description: S. cerevisiae RM11-1a growth modifiers, primary screen, strain RM11-1a, OD600, basal, 24 h (AID 1177);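 further: cultures grown under basal conditions with no added stressor; test concentration not given here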
experimental_parameters: OD600, 24 h, higher = more signal, called active from +8 up or from −8 down
# if value of z-score reaches 1, tag class 1; if it stays below, tag class 0

- compound: "O=c1cccc(-c2ccco2)o1"
  label_value: "class 0"
- compound: "O=C1O[C@H](c2ccccc2)[C@H](c2ccccc2)N2[C@H]1[C@@H](C(=O)Nc1nc3ccccc3s1)[C@]1(C(=O)Nc3ccc(C#CC4=CCCCC4)cc31)[C@H]2c1ccc(O)cc1"
  label_value: "class 0"
- compound: "COc1ccc([Si](C)(C)[C@H]2[C@H](CC(=O)N3Cc4ccccc4C[C@H]3CO)O[C@@]3(C(=O)N(Cc4ccc(N5C(=O)c6cccc7cccc5c67)cc4)c4ccccc43)[C@@H]2C)cc1"
  label_value: "class 1"
- compound: "CC(C)C(CO)N1C(=O)[C@@H]2[C@H]3C(=O)OCC=C[C@H]3OC23C=CCN(C(C)(C)C)C(=O)[C@@H]13 (some centres not stated)"
  label_value: "class 1"
- compound: "C=C(COC)/C(=C/C[C@H](OC(C)=O)c1cccc(OCCO)c1)c1cnc2ccccc2c1"
  label_value: "class 1"
- compound: "CC(C)C[C@@H]1NC(=O)[C@H]2C[C@@H](C(=O)NCCCCCN)[C@@H](c3cccc(OCCO)c3)N2C1=O"
  label_value: "class 0"
- compound: "CCc1cccc(NC(=O)O[C@H]2[C@H](OC(=O)Nc3ccccc3)[C@H](OC(=O)Nc3ccccc3)[C@@H](OC)O[C@@H]2CO)c1"
  label_value: "class 1"

---

// reported composite z-score for each item listed
study_system: Streptavidin (Streptomyces avidinii)
measurement_description: streptavidin binders on small-molecule microarray, primary screen, artefact control for SMM compound annotation, biophysical, 635/667 nm fluorescence (AID 1147);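 further: signal reflects streptavidin binding to arrayed compounds as a control protein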
experimental_parameters: streptavidin binding, higher = more signal

- compound: "CN1C=C(C(=O)OCCS(C)(=O)=O)C(C(=O)OCCS(C)(=O)=O)=CC(c2ccc(CO)cc2)=CC1c1cccs1 (centres undefined)"
  composite z-score: 1.42
- compound: "C=CCC(OC(C)=O)[C@@H]1[C@@H](N(Cc2ccc(-c3cccc(C(F)(F)F)c3)o2)C(=O)c2cccc3ccccc23)c2cc(OCCCO)ccc2N1C(=O)Cc1ccc(OC)cc1 (some centres undefined)"
  composite z-score: -0.551
- compound: "COc1ccc([Si](C)(C)[C@@H]2[C@@H](CCn3cc([C@H](O)c4ccccc4)nn3)O[C@]3(C(=O)N(c4ccccc4)c4ccccc43)[C@H]2C)cc1"
  composite z-score: -0.238
- compound: "O=c1cccc(-c2ccco2)o1"
  composite z-score: 0.721
- compound: "C=CCC(OC(C)=O)[C@@H]1[C@@H](N(Cc2cccc3ccccc23)C(=O)c2ccc(-c3ccccc3)cc2)c2cc(OCCCO)ccc2N1C(=O)c1ccc(-c2ccccc2)cc1 (some centres undefined)"
  composite z-score: 0.361
- compound: "C=C[C@@H](OC)[C@H](OC(=O)Nc1ccc(OC)cc1)c1ccc(OC)c(O)c1"
  composite z-score: -0.833
- compound: "C=C(/C(=C/C[C@@H](OC(=O)c1ccncc1)c1cccc(OCCO)c1)c1cnc2ccccc2c1)C(C)C"
  composite z-score: 1.62
- compound: "O=C1OCCC/C=C\\[C@H]2OC34C=CCN(c5ccc6ccccc6c5)C(=O)[C@H]3N(CCCO)C(=O)[C@@H]4C12 (some centres undefined)"
  composite z-score: -1.3
- compound: "O=C(O)[C@@H]1C[C@@H]2C(=O)N3CCC[C@H]3C(=O)N2[C@@H]1c1cccc(OCCO)c1"
  composite z-score: 3.76
- compound: "O=C(CS)NCCCCCCNC(=O)[C@@H]1C[C@@H]2C(=O)NCC(=O)N2[C@@H]1c1ccc(O)cc1"
  composite z-score: -0.635
- compound: "CN(C)C(=O)[C@]1(CCS(=O)(=O)c2ccccc2)N=C(c2ccc(OCCCO)cc2)O[C@@H]1c1ccccc1"
  composite z-score: 1.22
- compound: "CC(C)C[C@@H]1NC(=O)[C@@]23C(=O)N[C@@H](Cc4ccccc4)C2[C@H](C)[C@@]2(C)O[C@H]2C3/C=C/C/C=C\\CNC(=O)[C@@H](C)NC1=O (some centres undefined)"
  composite z-score: -0.823
- compound: "COc1ccc([Si](C)(C)[C@H]2[C@H](CCO)O[C@@]3(C(=O)N(Cc4ccc(N5C(=O)c6ccccc6Oc6ccccc65)cc4)c4ccccc43)[C@@H]2C)cc1"
  composite z-score: -0.446
- compound: "COCCOC(=O)N1C(=O)[C@@]2(c3cc(C#CCNC(N)=O)ccc31)[C@H](c1ccc(O)cc1)N1[C@H](c3ccccc3)[C@H](c3ccccc3)OC(=O)[C@H]1[C@@H]2C(=O)N1CCN(c2ncccn2)CC1"
  composite z-score: 0.374

---

measurement_description: Plasmodium falciparum growth inhibition, primary screen, strain 3D7, DAPI fluorescence, 100 nL (AID 1184);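 further: parasites grown inside human red blood cells in medium with human serum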
experimental_parameters: P. falciparum 3D7 growth, 3 d, higher = more signal
endpoint_name: z-score

- cpd_smiles: "COCC(=C=CC[C@@H](O)c1ccc(OCCO)cc1)CCO"
  reading: -1.46
- cpd_smiles: "COC(=O)[C@@]1(Cc2ccc(F)cc2)[C@H]2c3cc(C(=O)N4CCCC4)n(CC4CC4)c3C[C@H]2CN1C(=O)c1ccccc1"
  reading: -1.36
- cpd_smiles: "COc1ccc([Si](C)(C)[C@@H]2[C@@H](CC(=O)N3Cc4ccccc4C[C@H]3CO)O[C@]3(C(=O)N(Cc4ccc(N5CCC5=O)cc4)c4ccccc43)[C@H]2C)cc1"
  reading: -2.64
- cpd_smiles: "CC(C)(C)OC(=O)CC[C@]1(C(=O)N2CCCCC2)COC(c2ccc(OCCCO)cc2)=N1"
  reading: -1.4

---

study_system: Torsin-1A-interacting protein 2 (Homo sapiens) (UniProt Q8NFQ8)
Sequence (Q8NFQ8 whole entry, looked up): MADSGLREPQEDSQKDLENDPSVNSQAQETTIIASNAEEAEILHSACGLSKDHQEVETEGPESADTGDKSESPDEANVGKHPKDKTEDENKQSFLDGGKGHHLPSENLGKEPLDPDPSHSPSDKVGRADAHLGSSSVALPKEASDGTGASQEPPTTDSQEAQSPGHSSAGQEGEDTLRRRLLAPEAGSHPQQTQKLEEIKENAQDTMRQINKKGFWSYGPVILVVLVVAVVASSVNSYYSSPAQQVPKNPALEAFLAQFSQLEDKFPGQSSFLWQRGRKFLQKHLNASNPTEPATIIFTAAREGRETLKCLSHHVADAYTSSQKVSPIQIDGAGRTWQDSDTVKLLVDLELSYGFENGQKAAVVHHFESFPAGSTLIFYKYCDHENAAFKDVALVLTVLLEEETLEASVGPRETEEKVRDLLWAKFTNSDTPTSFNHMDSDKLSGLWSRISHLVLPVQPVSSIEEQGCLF
measurement_description: LULL1 binders on small-molecule microarray, primary screen, cell lysate, human LULL1 lysate, 635/667 nm fluorescence (AID 1092);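 further: probe is lysate of COS7 cells overexpressing human LULL1; score merges per-feature 667 nm fluorescence with signal-to-noise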
experimental_parameters: hLULL1 lysate binding, 635 nm fluorescence, higher = more signal

- compound: "COC(=O)C1N=C(c2ccc(OCCCO)cc2)N(c2ccccc2)O1 (stereo not drawn)"
  composite z-score: 2.07
- compound: "C=CCN1C(=O)[C@]2(O[C@H](CCO)[C@@H]([Si](C)(C)c3ccc(OC)cc3)[C@@H]2C)c2cc(NC(=O)c3ccc(OC)cc3)ccc21"
  composite z-score: 0.739
- compound: "CN1C(=O)C2C(C1=O)C1C=C(CCCO)C2C(c2cccs2)N1Cc1cc2c(cc1Br)OCO2 (stereo not drawn)"
  composite z-score: 3.41
- compound: "CN(C)CCCNC(=O)[C@@H]1c2ccccc2C(=O)N(C2CCCCC2)[C@H]1c1ccc(CO)cc1"
  composite z-score: 3.08
- compound: "COCC(=C=CC[C@H](O)c1cccc(OCCO)c1)C[C@H](O)COCc1ccccc1"
  composite z-score: 2.22
- compound: "Cc1ccc(S[C@]2(C(=O)NCc3ccccc3)CC(=O)N(Cc3cc(C(F)(F)F)cc(C(F)(F)F)c3)[C@@H]2c2ccc(CO)cc2I)cc1"
  composite z-score: 0.742
- compound: "O=C1C[C@@](C(=O)NCc2ccccc2)(c2ccc([N+](=O)[O-])cc2)[C@@H](c2ccc(CO)cc2I)N1CC12CC3CC(CC(C3)C1)C2"
  composite z-score: 2.61
- compound: "Cc1ccc(S[C@]2(C(=O)NC(C)C)CC(=O)N(Cc3ccccc3Cl)[C@@H]2c2ccc(CO)cc2)cc1"
  composite z-score: 2.06

---

measurement_description: Plasmodium falciparum growth inhibition, primary screen, strain 3D7, DAPI fluorescence, 100 nL (AID 1184);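 further: parasites grown inside human red blood cells in medium with human serum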
experimental_parameters: P. falciparum 3D7 growth, 3 d, higher = more signal
endpoint_name: z-score

- cpd_smiles: "CCc1cccc(NC(=O)O[C@H]2[C@H](OC(=O)Nc3ccccc3)[C@H](OC(=O)Nc3ccccc3)[C@@H](OC)O[C@@H]2CO)c1"
  reading: -1.49
- cpd_smiles: "Cc1ccc(S[C@]2(C(=O)NC(C)C)CC(=O)N(C(C)C)[C@@H]2c2ccc(CO)cc2I)cc1"
  reading: -2.02
- cpd_smiles: "CCCNC(=O)[C@@]1(C)c2ccccc2C(=O)N(Cc2ccccc2)[C@H]1c1ccc(CO)cc1"
  reading: -0.804
- cpd_smiles: "COC(=O)[C@@]1(Cc2ccccc2)[C@H]2c3cc(C(=O)N4CCCC4)n(CCSCCO)c3C[C@H]2CN1C(=O)c1ccccc1"
  reading: -1.7
- cpd_smiles: "O=c1cccc(-c2ccco2)o1"
  reading: 2.05

---

// reported composite z-score for each item listed
measurement_description: small-molecule microarray binders of probe aDKK1, primary screen, biochemical, biotinylated probe, 635/667 nm fluorescence (AID 1099);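 further: score merges 667nm spot fluorescence with signal to noise across triplicate slides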
experimental_parameters: higher = more signal

- molecule: "O=C(CS)NCCCCCNC(=O)[C@@H]1C[C@@H]2C(=O)N[C@@H](Cc3ccccc3)C(=O)N2[C@@H]1c1cccc(OCCO)c1"
  composite z-score: 0.0021
- molecule: "CN1C(=O)C2C(C1=O)C1C=C(CCCO)C2C(c2cccs2)N1Cc1cc2c(cc1Br)OCO2 (stereo not given)"
  composite z-score: 0.738
- molecule: "CC(C)C[C@@H]1NC(=O)[C@H]2C[C@@H](C(=O)NCCCCCN)[C@@H](c3cccc(OCCO)c3)N2C1=O"
  composite z-score: 0.206
- molecule: "CO[C@H]1O[C@H](CO)[C@@H](OC(=O)CCc2ccccc2)[C@H](OC(=O)c2cc3ccccc3[nH]2)[C@H]1OC(=O)c1cc2ccccc2[nH]1"
  composite z-score: -0.118
- molecule: "C=CCNC(=O)[C@H]1[C@@H]2C(=O)O[C@@H](c3ccccc3)[C@@H](c3ccccc3)N2[C@@H](c2ccc(OCCO)cc2)[C@]12C(=O)N(C(=O)OCCOC)c1ccc(C#Cc3ccc(OC)cc3)cc12"
  composite z-score: 0.195
- molecule: "Cc1ccc([C@H]2C(C(=O)O)=C[C@@H](C(C)(C)C)N2S(=O)(=O)c2ccc(C)cc2)cc1"
  composite z-score: 1.05
- molecule: "O=C(NCC(O)CO)[C@@]1(CCS(=O)(=O)c2ccccc2)COC(c2ccc(OCCCO)cc2)=N1 (stereo not given in full)"
  composite z-score: 1.07
- molecule: "COCCOC(=O)N1C(=O)[C@@]2(c3cc(C#CC4=CCCCC4)ccc31)[C@H](C(=O)N1CCCCCCC1)[C@H]1C(=O)O[C@H](c3ccccc3)[C@H](c3ccccc3)N1[C@@H]2c1ccc(OCCO)cc1"
  composite z-score: 0.977
- molecule: "O=C1N[C@@H](Cc2ccccc2)C(=O)N2[C@@H]1C[C@@H](C(=O)O)[C@H]2c1ccc(O)cc1"
  composite z-score: 0.731
- molecule: "COc1cc(C(O)C2C=CC3C(=O)N(Cc4ccccc4)C(=O)C3N2n2cnnc2)cc(OC)c1OC (stereo not given)"
  composite z-score: 0.71
- molecule: "Cc1ccc(S[C@]2(C(=O)NCc3ccccc3)CC(=O)N(Cc3cc(C(F)(F)F)cc(C(F)(F)F)c3)[C@@H]2c2ccc(CO)cc2I)cc1"
  composite z-score: 0.664
- molecule: "COC(=O)[C@@]1(Cc2ccccc2CN=[N+]=[N-])N=C(c2ccc(OCCCO)cc2)O[C@H]1c1ccccc1"
  composite z-score: 0.789
- molecule: "C[C@@H]1ON(c2ccc(I)cc2)[C@H](c2ccc(OC(=O)OC(C)(C)C)cc2)[C@H]1C(=O)N1C(=O)OC[C@H]1Cc1ccccc1"
  composite z-score: -0.14
- molecule: "O=C1C2C=CC(C(O)c3cccc(O)c3)N(Nc3ccccc3)C2C(=O)N1c1ccccc1 (stereo not given)"
  composite z-score: 0.305
- molecule: "O=C(NCCN1CCOCC1)[C@@H]1c2ccccc2C(=O)N(Cc2ccccc2)[C@H]1c1ccc(CO)cc1"
  composite z-score: -0.117
